# EXPERIMENTAL DETAILS: amyloid nucleation score (Sup35N fusion, yeast selection) (log enrichment); library NNK2; higher = more nucleation; inactive = no reads after selection;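 further: zero at mode of non-aggregating sequences after 7 days selection at 30°C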
amyloid nucleation score values for the substances below.
Keep the answer to the number alone.

Here are 5 substances together with their reported answers.
Which amyloid nucleation score is reported for this substance? YTRKVSAG -0.063

Which amyloid nucleation score is reported for this substance? PLSPFTHGLSQYIALEIDGQ -0.254

Which amyloid nucleation score is reported for this substance? IRFWLRRFICD -0.528

Which amyloid nucleation score is reported for this substance? IYWTNLSRLKTGANRLRDKK 0.177

Which amyloid nucleation score is reported for this substance? SCDIKCWCQ 3.41

Others:
Which amyloid nucleation score is reported for this substance? DHVLSFDSIVVWYLRIGGEE -0.656

Which amyloid nucleation score is reported for this substance? NYPSVGSDIARLLRLVTRRI -0.313

Which amyloid nucleation score is reported for this substance? QWVVLVD -0.016

----------
amyloid nucleation score values for the substances below.
# EXPERIMENTAL DETAILS: amyloid nucleation score (Sup35N fusion, yeast selection) (log enrichment); library NNK1; higher = more nucleation; inactive = no reads after selection
Keep the answer to the number alone.

Which amyloid nucleation score is reported for this substance? KLEGSARSGTTSRGSFSECV 0.254

Others:
Which amyloid nucleation score is reported for this substance? SRLAKLSFKQGNTTVCTKSS -0.742

Which amyloid nucleation score is reported for this substance? ATYSLIFEPWPGPRLVPMQG -0.12

Which amyloid nucleation score is reported for this substance? FWATRVTWLDEMLIYYCLVN 0.155

Which amyloid nucleation score is reported for this substance? SHASSSSSGCAYQSLVIWIN 4.45

Which amyloid nucleation score is reported for this substance? FFWLVAK -1.18

Which amyloid nucleation score is reported for this substance? PLRASRTMTSGKLQPNLRRK 0.035

Which amyloid nucleation score is reported for this substance? RISNRCSCSCNFDQGGVRQP 0.394

Which amyloid nucleation score is reported for this substance? MTRWTGRSLTLMRLQVVLRP -0.413

Which amyloid nucleation score is reported for this substance? KKYLVNNYFLGFR 0.127

Which amyloid nucleation score is reported for this substance? HYVVVKRRPMDMSGLVGWDA 0.036

Which amyloid nucleation score is reported for this substance? AFLMMSTVAPTLWMIMPSYS 0.446

----------
# EXPERIMENTAL DETAILS: amyloid nucleation score (Sup35N fusion, yeast selection) (log enrichment); library NNK3; higher = more nucleation; inactive = no reads after selection
MEASURE NAME: amyloid nucleation score

Here are 5 substances together with their reported answers.
Which amyloid nucleation score is reported for this substance? PPVLVNGLTLKWEGVYSVNY 0.802

Which amyloid nucleation score is reported for this substance? WDYGKWE inactive

Which amyloid nucleation score is reported for this substance? LAIFMDSENSYKRMHTVT inactive

Which amyloid nucleation score is reported for this substance? FKKCVDLKHYNVSMDVRCVL inactive

Which amyloid nucleation score is reported for this substance? SLSTSNLNIKLSPCYSFNRH 0.678

Others:
Which amyloid nucleation score is reported for this substance? LYLFMAYGVLGVLRQ 0.397

Which amyloid nucleation score is reported for this substance? IKVWRGKVG inactive

Which amyloid nucleation score is reported for this substance? MLPVIHIGVVSPRTFEQSSC inactive

----------
# EXPERIMENTAL DETAILS: amyloid nucleation score (Sup35N fusion, yeast selection) (log enrichment); library NNK1; higher = more nucleation; inactive = no reads after selection
MEASURE NAME: amyloid nucleation score

Here are 4 substances together with their reported answers.
Which amyloid nucleation score is reported for this substance? DQRVDR 0.107

Which amyloid nucleation score is reported for this substance? FHSMDEHVLLILTKNSV 0.317

Which amyloid nucleation score is reported for this substance? QRRALHTL -0.069

Which amyloid nucleation score is reported for this substance? CMYALT 0.015

Others:
Which amyloid nucleation score is reported for this substance? RLRSLDHWSWDAVMLMRAQL 0.432

Which amyloid nucleation score is reported for this substance? FSEVSNWVFLNIYYVAFF 0.934

----------
# EXPERIMENTAL DETAILS: amyloid nucleation score (Sup35N fusion, yeast selection) (log enrichment); library NNK3; higher = more nucleation; inactive = no reads after selection
MEASURE NAME: amyloid nucleation score

Here are 5 substances together with their reported answers.
Which amyloid nucleation score is reported for this substance? GFSGPSLGQIAG inactive

Which amyloid nucleation score is reported for this substance? DVMTKDQ inactive

Which amyloid nucleation score is reported for this substance? HITVNRSKGFDGSRTAPFQM inactive

Which amyloid nucleation score is reported for this substance? QSLHSYNRSESCSLGSSFWI inactive

Which amyloid nucleation score is reported for this substance? NFGQKQNIWAWTVYCPDPCE inactive

Others:
Which amyloid nucleation score is reported for this substance? VWRWGDLNSSGCCMWSRLNM 1.99

Which amyloid nucleation score is reported for this substance? ADVGGD inactive

Which amyloid nucleation score is reported for this substance? STELYVNLDQVSPYSVRQLT inactive

Which amyloid nucleation score is reported for this substance? DLRVPLNTFRNYHVSRELVR inactive

Which amyloid nucleation score is reported for this substance? LTKGLSAMLQFRWRAVFKNG inactive

Which amyloid nucleation score is reported for this substance? IGMKFCAYVLLSYKAITMFG inactive

Which amyloid nucleation score is reported for this substance? SLDSYDTDLKGVCCQVFCIK 3.24

Which amyloid nucleation score is reported for this substance? YAVLNELVTRSCLYAVSFTI inactive

Which amyloid nucleation score is reported for this substance? TGVVTMF inactive

----------
# EXPERIMENTAL DETAILS: amyloid nucleation score (Sup35N fusion, yeast selection) (log enrichment); library NNK1; higher = more nucleation; inactive = no reads after selection
Respond with yes for amyloid nucleation score values of -0.7 and above, no for values below.

hey, is amyloid nucleation score for this one >= -0.7? CLYICIMGRIDAISSHSQII yes

----------
# EXPERIMENTAL DETAILS: amyloid nucleation score (Sup35N fusion, yeast selection) (log enrichment); library NNK3; higher = more nucleation; inactive = no reads after selection
MEASURE NAME: amyloid nucleation score

Which amyloid nucleation score is reported for this substance? KHRYAYGRRTNCWASHYLRG inactive

Which amyloid nucleation score is reported for this substance? EGETTEVLTLVVWRKVINNS inactive

Which amyloid nucleation score is reported for this substance? VFMCLANYMFPIPGNRHVPP 0.053

Which amyloid nucleation score is reported for this substance? FSVYVAG inactive

Which amyloid nucleation score is reported for this substance? VVRLWE inactive

Which amyloid nucleation score is reported for this substance? VINRHVCGRVGMLTGFDGLT inactive

Others:
Which amyloid nucleation score is reported for this substance? ILISFNQLKP 1.18

Which amyloid nucleation score is reported for this substance? LHITVEIWTLWK inactive

----------
# EXPERIMENTAL DETAILS: amyloid nucleation score (Sup35N fusion, yeast selection) (log enrichment); library NNK1; higher = more nucleation; inactive = no reads after selection
MEASURE NAME: amyloid nucleation score

Here are 8 substances together with their reported answers.
Which amyloid nucleation score is reported for this substance? VGEALYHESSGTVNLEILCS inactive

Which amyloid nucleation score is reported for this substance? FWTKSGSEEIITMVSTVRWR -0.749

Which amyloid nucleation score is reported for this substance? PFYNSQ -0.371

Which amyloid nucleation score is reported for this substance? LNKVWFSWSRDKVRYTGMLV -0.857

Which amyloid nucleation score is reported for this substance? VEVATPLTGSLQLPASYIMP inactive

Which amyloid nucleation score is reported for this substance? VGVWLFCLAYWE inactive

Which amyloid nucleation score is reported for this substance? SRCHQRTYEVIAEYDLSKTE 0.223

Which amyloid nucleation score is reported for this substance? YIGFVGSGYLVVCVP -2.02

Others:
Which amyloid nucleation score is reported for this substance? CTSCQYKCNCWGCVRYQTWF 2.41

Which amyloid nucleation score is reported for this substance? KLAYKRSQMLTVVPRCSQGT -0.39

Which amyloid nucleation score is reported for this substance? DKCCKLSRD 0.972

Which amyloid nucleation score is reported for this substance? TFIITSRFLYSDVAT -1.33

Which amyloid nucleation score is reported for this substance? VLEDDSDWGSRFVRRGYIKT 1.15

Which amyloid nucleation score is reported for this substance? MICYLF 0.019

Which amyloid nucleation score is reported for this substance? TFYLEYLVLFGDCDADSFSW -0.361

Which amyloid nucleation score is reported for this substance? YVRVRSIDVLQQKRSLFVRD 0.595

Which amyloid nucleation score is reported for this substance? IKSVMDWSSCTEL -0.144

----------
# EXPERIMENTAL DETAILS: amyloid nucleation score (Sup35N fusion, yeast selection) (log enrichment); library NNK3; higher = more nucleation; inactive = no reads after selection
MEASURE NAME: amyloid nucleation score

Here are 8 substances together with their reported answers.
Which amyloid nucleation score is reported for this substance? LMFNGILNQCSVMYLNRIYK 2.97

Which amyloid nucleation score is reported for this substance? GFWLGVMVTHTSTTYSAFTP 0.059

Which amyloid nucleation score is reported for this substance? CRACGRWCNSSYIYIY inactive

Which amyloid nucleation score is reported for this substance? SMSFTQFKGGGSIIITWCWP inactive

Which amyloid nucleation score is reported for this substance? SLCFGTP inactive

Which amyloid nucleation score is reported for this substance? CFSAASTVKNMIEGCCRGMY inactive

Which amyloid nucleation score is reported for this substance? IKVTIYPRLTRSNATFMPSM inactive

Which amyloid nucleation score is reported for this substance? GEKIDRVM inactive

Others:
Which amyloid nucleation score is reported for this substance? IEQRLRLKSLSYFFINDVKI inactive

Which amyloid nucleation score is reported for this substance? FIWVFCD inactive

Which amyloid nucleation score is reported for this substance? RCDNKF 1.2

Which amyloid nucleation score is reported for this substance? DSLAVFNNVRRSMTVSRSAA -0.89

Which amyloid nucleation score is reported for this substance? VLVESDLSVIATVSGLLCAR inactive
